Entries annotated with measured melting point

Reported melting point, compound CC(C)(C)C(O)C(Oc1ccc(Cl)cc1)n1ncnc1S (stereo not given) : ____
193 to 194 °C

Reported melting point, compound Cc1ccc(C2CC(N)=NN2c2nc3ccccc3s2)cc1 (stereo not given) : ____
282 to 285 °C

Reported melting point, compound `O=C(O)CCC(=O)c1ccc(NC(=O)c2ccc(F)cc2)cc1` : ____
253 to 255 °C

Reported melting point, compound `C=CCCC(O)=C(C#N)C(=O)Nc1ccc(C(F)(F)F)cc1` : ____
145 °C

Reported melting point, compound COC(N)C(=O)NC(=O)OCc1ccccc1 (stereo not given) : ____
110 to 112 °C

Reported melting point, compound `O=C(O)c1cc(-c2ccc(OCc3ccccc3)cc2OCc2ccccc2)no1` : ____
192 to 193 °C

Reported melting point, compound Cc1nc(C(c2c(Cl)cccc2Cl)n2cncn2)nc(C)c1N (stereo not given) : ____
158 to 159 °C

Reported melting point, compound O=C1NCCNC1Cc1ccccc1 (stereo not given) : ____
92 to 93 °C

----------
PROPERTY_MEASURED: melting point

CCCc1nccn1-c1nc(Cl)nc2nc[nH]c12	224 to 225 °C
Cc1ccc(C(=O)Nc2ccc(N3CCN(C)CC3)c(C(F)(F)F)c2)cc1Nc1nccc(-c2cccnc2)n1	214 to 217 °C
CC(C)Oc1ccc(-c2ccc3c(c2)C=C(C(=O)Nc2ccc(CN(C)C4CCOCC4)cc2)CCS3(=O)=O)cc1	245 to 247 °C
CSc1nn2c(N)cc(C)nc2c1S(=O)(=O)c1ccc(F)cc1	> 230 °C
COC(=O)COc1ccc(C(=O)CN(C)C(=O)c2ccc(C(=N)N)cc2)cc1OCC(=O)OC	177 to 178 °C
C=CCNC(=O)N1CC(OCc2cccc(C(F)(F)F)c2)C1	108 °C
CCCC1=C(C(=O)OCC)C(c2cccnc2)c2c[nH]nc2N1 (stereo not given)	251 °C
COc1cccc(COc2ncc(F)c(N/N=C/c3cccs3)n2)c1	136 to 139 °C

Reported melting point, molecule `ClC(=NNc1cc(Cl)ccc1Cl)c1ccccc1` : ____
84.5 to 86 °C

Reported melting point, molecule CN1C(=S)N(C)C2(c3ccccc3)CCCN12 (stereo not given) : ____
83 to 85 °C

Reported melting point, molecule `CCN(CC)c1ccc(/C=C/c2cc(/C=C/c3ccc4cc[nH]c4c3)[nH]n2)c(OCCN2CCOCC2)c1` : ____
96 to 99 °C

Reported melting point, molecule C=CCc1cc2c(c(CC=C)c1O)S(=O)CN2CC=C (stereo not given) : ____
110 to 111 °C

Reported melting point, molecule CCOC(=O)C1=C(C)Nc2nc(N)nc(N)c2C1c1cccnc1 (stereo not given) : ____
224 °C

Reported melting point, molecule `CCCc1cc(NC(=O)C(=O)OCC)sc1C(=O)OCC` : ____
93 to 94 °C

Reported melting point, molecule `CCC(=O)Nc1ccc2c(Nc3cccc(Br)c3)ncnc2c1` : ____
282 to 283 °C

----------
PROPERTY_MEASURED: melting point

Use the examples below as a reference point.
CC(C#N)(C(N)=O)c1cccc(Oc2ccccc2)c1 (stereo not drawn)	123 to 125 °C
Cc1ccccc1-c1c(NC(=O)Nc2ccc(F)cc2F)c(=O)oc2cc3c(cc12)CCC3	223 to 224 °C

Reported melting point, compound `COC(=O)c1ccc(Nc2ccn(-c3ccccc3)n2)cc1` : ____
160 to 161 °C

Hello, the source for this data is a melting point compilation (Tetko et al.; mined from patent text by program, amines drawn as free bases though some values may be those of a salt), in case you need it.
